Origin of measurements: ChEMBL document CHEMBL3885881

Task for the reader: assign each of the following compounds its reported ALANINE AMINOTRANSFERASE.
Species: Rattus norvegicus
procedure_text: DrugMatrix - Regimen: Daily Repeat
Type: toxicity, organism-based, Sprague-Dawley
Parameters: regimen Daily Repeat, gender Male, age 6-8 weeks
particulars: in vivo, po, 0 mg/kg, 120 h, tissue Plasma, route oral GAVAGE, dose level Control, time 5 day, […]
Numbers only, in u/L.

• CC#C[C@]1(O)CC[C@H]2[C@@H]3CCC4=CC(=O)CCC4=C3[C@@H](c3ccc(N(C)C)cc3)C[C@@]21C = 62
• O=C(O)COC(=O)Cc1ccccc1Nc1c(Cl)cccc1Cl = 64.5
• O=C(Nc1ccc(Cl)c(Cl)c1)c1cc(Cl)cc(Cl)c1O [3,3',4',5-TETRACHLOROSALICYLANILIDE] = 58.83
• COC(=O)Nc1nc2ccc(C(=O)c3ccccc3)cc2[nH]1 = 64.5
• CS(=O)(=O)c1ccc(C2=C(c3ccccc3)C(=O)OC2)cc1 = 54.67
• Cc1cccc(C)c1NC(=O)C(C)N (centres undefined) [TOCAINIDE] = 57.83
• COc1ccccc1OCCNCC(O)COc1cccc2[nH]c3ccccc3c12 (centres undefined) = 64.5
• CCOC(=O)C1=C(C)NC(C)=C(C(=O)OCC)C1c1ccccc1/C=C/C(=O)OC(C)(C)C = 68.83

Now consider the entry below.
Q: So what does the record say about ALANINE AMINOTRANSFERASE for c1ccc2c(c1)Nc1ccccc1S2 ?
A: 54.67

* * *

Organism: Rattus norvegicus
Assay type: toxicity, organism-based, Sprague-Dawley
particulars: in vivo, iv, 0 mg/kg, 24 h, vehicle control, tissue Blood, dose level Control, time 1 day, vehicle 100 % SALINE
Description: DrugMatrix - Regimen: Single
experimental_readout: ABSOLUTE EOSINOPHIL (cells/µL)
Numbers only, in cells/µL.

Q: Return reported ABSOLUTE EOSINOPHIL; argument: CC(=O)[C@]1(O)Cc2c(O)c3c(c(O)c2[C@@H](O[C@H]2C[C@H](N)[C@H](O)[C@H](C)O2)C1)C(=O)c1ccccc1C3=O [IDARUBICIN]
A: 75

* * *

I'd appreciate it if you could supply PLATELET COUNT values for the items below.
Species on record: Rattus norvegicus
procedure_text: DrugMatrix - Regimen: Daily Repeat
Format: toxicity, organism-based, Sprague-Dawley
Set-up: regimen Daily Repeat, gender Male, age 6-8 weeks
particulars: in vivo, po, 0 mg/kg, 120 h, tissue Blood, route oral GAVAGE, dose level Control, time 5 day, […]
Respond with a number, then the unit of measure.

Below are 5 compounds. Give each one its PLATELET COUNT.
1. Cc1cccc(C)c1NC(=O)C(C)N (stereo not given) [TOCAINIDE]
2. c1ccc2c(c1)Nc1ccccc1S2
3. COc1ccccc1OCCNCC(O)COc1cccc2[nH]c3ccccc3c12 (stereo not given)
4. CC#C[C@]1(O)CC[C@H]2[C@@H]3CCC4=CC(=O)CCC4=C3[C@@H](c3ccc(N(C)C)cc3)C[C@@]21C
5. CCOC(=O)C1=C(C)NC(C)=C(C(=O)OCC)C1c1ccccc1/C=C/C(=O)OC(C)(C)C

A:
1. 1077.5 x10E3/uL
2. 1052.67 x10E3/uL
3. 883.83 x10E3/uL
4. 1231.5 x10E3/uL
5. 941.83 x10E3/uL
